concentration at 3 h values by entry
assay_text: Liver retinoids of Lrat-/- mice 3 h after gavage with all-trans-ROL palmitate
Format: in vivo, mouse
measurement_setup: Lrat−/− (LRAT-deficient knockout), mouse, liver, oral, Lrat-/- mice, liver, 3 hr post-gavage, 10^6 IU/kg body weight all-trans-ROL palmitate; read-out: Level of liver retinoids 3 hr following gavage with ROL palmitate
Procedure: Metabolism of Retinoids in Vivo. […] Analysis of Retinoids. […] The HPLC elution conditions were […], 100% buffer A for 40 min, 100% buffer B for 10 min, and 10 min equilibration in buffer A. The elution profiles of RA and DRA were monitored using an online diode array detector set at 350 and 290 nm, respectively. […] The extraction efficiency was monitored by spiking a tissue sample with [^3H]RA (PerkinElmer Life Sciences) and monitoring the radioactivity recovered from the HPLC column. […]
Could you write the number and then its unit?

Per the records, this compound ( CC1=C(/C=C/C(C)=C/C=C/C(C)=C/C(=O)O)C(C)(C)CCC1 [all-trans-RA, all-trans-retinoic acid, reference compound] ) has concentration at 3 h equal to 9.4 µM

GET /value?item= CC1=C(/C=C/C(C)=C/C=C/C(C)CO)C(C)(C)CCC1 (single isomer, unassigned) &field=concentration at 3 h returns 1.8 µM
